Molecular target: Recombinant (1-346) HPK1 (h) (Homo sapiens)
Construct: Recombinant (1-346) HPK1 (h) is incubated with 8 mM MOPS pH 7.0
Sequence (Q92918 1-346): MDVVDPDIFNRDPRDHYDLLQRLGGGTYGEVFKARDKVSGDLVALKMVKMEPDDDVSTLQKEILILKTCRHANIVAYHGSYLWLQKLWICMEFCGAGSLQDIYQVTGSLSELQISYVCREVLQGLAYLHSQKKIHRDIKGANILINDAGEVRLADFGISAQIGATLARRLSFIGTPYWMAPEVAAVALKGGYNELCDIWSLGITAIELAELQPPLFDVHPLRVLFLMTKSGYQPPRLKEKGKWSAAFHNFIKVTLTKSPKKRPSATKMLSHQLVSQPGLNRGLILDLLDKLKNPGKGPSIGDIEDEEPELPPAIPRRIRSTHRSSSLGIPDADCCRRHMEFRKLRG
Experiment: HPK1 Human STE Kinase Enzymatic Radiometric Assay
Type: biochemical
Conditions: read-out: HPK1 IC50 nM Range*
IC50: recorded values

| chemical.structure | IC50 |
| --- | --- |
| Nc1nc(F)c(-c2ccc(N3CCN(CC(F)F)CC3)cc2)cc1-c1ccc2c(c1)CCNC2=O | 0.1 to 10 nM |
| CN1CCC[C@H]1c1cccc(-c2cc(-c3cc4c(cc3F)C(=O)NCC4)c(N)nc2F)c1 | 11 to 100 nM |
| CC(C)[C@H]1CN(c2ccc(-c3cnc(N)c(-c4ccc5c(c4)CCNC5=O)c3F)cc2)CCO1 | 11 to 100 nM |

GET /values?readout=IC50&item= Nc1nc(F)c(-c2ccc(N3CCOCC3)cc2)cc1-c1cc(F)c2c(c1)CCNC2=O 0.1 to 10 nM

GET /values?readout=IC50&item= COc1cc2c(cc1-c1cc(-c3ccc4c(c3)CCNC4=O)c(N)nc1F)CN(C)CC2 11 to 100 nM

GET /values?readout=IC50&item= CC(C)(C)OC(=O)N1CCC(S(=O)(=O)c2ccc(-c3cc(-c4ccc5c(c4)CCNC5=O)c(N)nc3F)cc2)CC1 11 to 100 nM

GET /values?readout=IC50&item= CC(C)(N)c1cc(-c2cc(-c3ccc4c(c3)CCNC4=O)c(N)nc2F)ccc1F 101 to 1000 nM

GET /values?readout=IC50&item= COCCN1CCc2c(C)cc(-c3cc(-c4ccc5c(c4)CCNC5=O)c(N)nc3F)cc2C1 0.1 to 10 nM

---

molecular target: Recombinant (1-346) HPK1 (h) (Homo sapiens, UniProt Q92918); construct: Recombinant (1-346) HPK1 (h) is incubated with 8 mM MOPS pH 7.0; experiment: HPK1 Human STE Kinase Enzymatic Radiometric Assay; assay type: biochemical; settings: read-out: HPK1 IC50 nM Range*
property.measured: IC50

GET /values?readout=IC50&item= N#Cc1cc(-c2cc(-c3ccc4c(c3)CCNC4=O)c(N)nc2F)ccc1OC1CCNCC1 11 to 100 nM

GET /values?readout=IC50&item= CC(=O)N1CCC(Oc2ccc(-c3cc(-c4cc5c(cc4F)C(=O)NCC5)c(N)nc3F)cc2CN(C)C)CC1 11 to 100 nM

GET /values?readout=IC50&item= CN1CCN(c2ccc(-c3cc(-c4cc5c(cc4F)C(=O)NCC5)c(N)nc3F)cc2F)CC1 0.1 to 10 nM

GET /values?readout=IC50&item= C[C@@H](C1CC1)N1CCN(c2ccc(-c3cc(-c4cc(F)c5c(=O)[nH]ccc5c4)c(N)nc3F)cc2)CC1 0.1 to 10 nM

---

Target: Recombinant (1-346) HPK1 (h) (Homo sapiens)
Construct: Recombinant (1-346) HPK1 (h) is incubated with 8 mM MOPS pH 7.0
Sequence (Q92918 1-346): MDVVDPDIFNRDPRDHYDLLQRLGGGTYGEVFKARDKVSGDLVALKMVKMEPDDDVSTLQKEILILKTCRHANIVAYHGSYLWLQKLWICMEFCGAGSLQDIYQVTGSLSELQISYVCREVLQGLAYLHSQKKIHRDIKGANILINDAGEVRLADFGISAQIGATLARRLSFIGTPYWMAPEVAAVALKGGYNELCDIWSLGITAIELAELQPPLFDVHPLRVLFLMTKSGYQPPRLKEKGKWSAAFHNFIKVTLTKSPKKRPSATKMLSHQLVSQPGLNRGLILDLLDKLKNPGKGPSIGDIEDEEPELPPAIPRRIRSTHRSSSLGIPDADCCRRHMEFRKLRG
Test: HPK1 Human STE Kinase Enzymatic Radiometric Assay
Type: biochemical
Settings: read-out: HPK1 IC50 nM Range*
property.measured: IC50

| molecule | IC50 |
| --- | --- |
| CN(C)Cc1cc(-c2cc(-c3cc4c(cc3F)C(=O)NCC4)c(N)nc2F)ccc1N1CCS(=O)(=O)CC1 [I-498] | 11 to 100 nM |

GET /values?readout=IC50&item= Nc1nc(F)c(-c2ccc(N3CCCC3)cc2)cc1-c1ccc2c(c1)CCNC2=O [I-59] 11 to 100 nM

GET /values?readout=IC50&item= Nc1nc(F)c(-c2ccc(OC3CCN(C(=O)CC4CC4)CC3)cc2)cc1-c1cc2c(cc1F)C(=O)NCC2 [I-323] 0.1 to 10 nM

GET /values?readout=IC50&item= CC(=O)N1CCC(Oc2ccc(-c3cc(-c4cc5c(cc4F)C(=O)NCC5)c(N)nc3F)cc2C#N)CC1 [I-291] 0.1 to 10 nM

---

target: Recombinant (1-346) HPK1 (h) (Homo sapiens, UniProt Q92918); construct: Recombinant (1-346) HPK1 (h) is incubated with 8 mM MOPS pH 7.0; assay: HPK1 Human STE Kinase Enzymatic Radiometric Assay; assay type: biochemical; settings: read-out: HPK1 IC50 nM Range*
property.measured: IC50

Example results:
| compound | IC50 |
| --- | --- |
| Nc1nc(F)c(-c2ccc(O[C@@H]3CCCNC3)cc2)cc1-c1cc2c(cc1F)C(=O)NCC2 | 11 to 100 nM |
| CN(C)Cc1cc(-c2cc(-c3cc4c(cc3F)C(=O)NCC4)c(N)nc2F)ccc1C1CCOC1 (stereo not shown) | 11 to 100 nM |
| CN(C)Cc1cc(-c2cc(-c3ccc4c(c3)CCNC4=O)c(N)nc2F)ccc1OCCCC(F)F | 0.1 to 10 nM |

GET /values?readout=IC50&item= Nc1nc(F)c(-c2ccc(N3CCN(CCF)CC3)cc2)cc1-c1ccc2c(c1)CCNC2=O 0.1 to 10 nM

GET /values?readout=IC50&item= CCN1CCN(c2ccc(-c3cc(-c4ccc5c(c4)CCCNC5=O)c(N)nc3F)cc2)CC1 11 to 100 nM

GET /values?readout=IC50&item= Nc1nc(F)c(-c2ccc(OC3CCN(C(=O)CCCC[C@@H]4SC[C@@H]5NC(=O)N[C@@H]54)CC3)cc2)cc1-c1ccc2c(c1)CCNC2=O 0.1 to 10 nM

---

biological target: Lck (h) (Homo sapiens); experiment: Lck Human  Kinase Enzymatic Radiometric Assay; format: biochemical; settings: read-out: Lck IC50 nM Range*
Sequence (P06239 whole entry): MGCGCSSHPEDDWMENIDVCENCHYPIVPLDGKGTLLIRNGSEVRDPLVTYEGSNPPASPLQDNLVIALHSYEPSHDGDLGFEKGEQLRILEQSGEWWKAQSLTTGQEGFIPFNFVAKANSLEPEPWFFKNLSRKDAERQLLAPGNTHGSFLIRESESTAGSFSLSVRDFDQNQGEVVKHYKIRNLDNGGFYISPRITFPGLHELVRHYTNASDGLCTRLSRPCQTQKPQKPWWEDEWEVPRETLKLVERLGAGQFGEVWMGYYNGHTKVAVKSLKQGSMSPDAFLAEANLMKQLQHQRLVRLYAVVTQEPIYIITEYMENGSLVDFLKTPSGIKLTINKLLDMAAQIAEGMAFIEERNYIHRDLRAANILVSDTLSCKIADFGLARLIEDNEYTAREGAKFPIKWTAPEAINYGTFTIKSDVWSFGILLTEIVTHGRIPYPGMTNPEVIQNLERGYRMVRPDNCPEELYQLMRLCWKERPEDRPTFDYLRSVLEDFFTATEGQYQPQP
IC50: recorded values

Example results:
| compound | IC50 |
| --- | --- |
| C[C@@H]1CCCN1c1ccc(-c2cc(-c3ccc4c(c3)CCNC4=O)c(N)nc2F)cc1 [I-46] | > 1000 nM |
| CCN1CC=C(c2ccc(-c3cc(-c4ccc5c(c4)CCNC5=O)c(N)nc3F)cc2)CC1 [I-76] | > 1000 nM |
| CCN(C)Cc1nc(-c2cc(-c3ccc4c(c3)CCNC4=O)c(N)nc2F)ccc1N1CCOCC1 [I-580] | > 1000 nM |
| CN1CCN(S(=O)(=O)c2ccc(-c3cc(-c4ccc5c(c4)CCNC5=O)c(N)nc3F)cc2)CC1 [I-207] | > 1000 nM |
| CC1(C)CC(Oc2ccc(-c3cc(-c4ccc5c(c4)CCNC5=O)c(N)nc3F)cc2)CCN1 (stereo not shown) [I-147] | > 1000 nM |
| Nc1nc(F)c(-c2ccc(OCC3CC3)cc2)cc1-c1cc2c(cc1F)C(=O)NCC2 [I-316] | > 1000 nM |
| Nc1nc(F)c(-c2ccc(C3CCN(C4COC4)CC3)cc2)cc1-c1ccc2c(c1)CCNC2=O [I-152] | > 1000 nM |
| CNCC1Cc2cc(-c3cc(-c4ccc(N5CCN(C(C)C)CC5)cc4)c(F)nc3N)ccc2C(=O)N1 (stereo not shown) [I-286] | > 1000 nM |

GET /values?readout=IC50&item= COCCN1CCC(OC)(c2ccc(-c3cc(-c4ccc5c(c4)CCNC5=O)c(N)nc3F)cc2)CC1 [I-208] > 1000 nM

GET /values?readout=IC50&item= CN(C)C1CCN(c2ccc(-c3cc(-c4ccc5c(c4)CCNC5=O)c(N)nc3F)cc2)CC1 [I-283] > 1000 nM

GET /values?readout=IC50&item= Nc1nc(F)c(-c2ccc(C3CCOCC3)c([C@@H]3CCCN3)c2)cc1-c1cc2c(cc1F)C(=O)NCC2 [I-368] 11 to 100 nM

GET /values?readout=IC50&item= Nc1nc(F)c(-c2ccc(O[C@@H]3CCCNC3)cc2)cc1-c1cc2c(cc1F)C(=O)NCC2 [I-180] > 1000 nM

GET /values?readout=IC50&item= Nc1nc(F)c(-c2ccc(C3=CCNCC3)cc2)cc1-c1ccc2c(c1)CCNC2=O [I-57, 2,2,2-trifluoroacetate] > 1000 nM

GET /values?readout=IC50&item= CC(C)N1CCC(Oc2ccc(-c3cc(-c4ccc5c(c4)CCNC5=O)c(N)nc3F)cc2)CC1 [I-267] > 1000 nM

GET /values?readout=IC50&item= Nc1nc(F)c(-c2ccc(OC3CCN(CC4CC4)CC3)cc2)cc1-c1cc2c(cc1F)C(=O)NCC2 [I-324] > 1000 nM

GET /values?readout=IC50&item= Nc1nc(F)c(-c2ccc(C3CCCN(CC(F)(F)F)C3)cc2)cc1-c1ccc2c(c1)CCNC2=O (stereo not shown) [I-89] > 1000 nM
